- target_of_assay: T1, truncated hTfR1 of SEQ ID NO:122 (human, UniProt P02786 122-760)
- T1 construct: also called human TfR1; Human TfR1
- protocol_details: SPR, FLAG-captured TfR1, scFv injected, 1:1 fit
- Procedure: The interaction was measured using the single cycle kinetics method with a contact time of 120 s at a flow rate of 30 μl/min followed by a dissociation time of 600 s. Regeneration of the surface between cycles was done by injecting 10 mM glycine-HCl, pH 1.7. The binding data was fitted to a 1:1 interaction model. The scFv variants were diluted in HBS-EP+ (Cytiva. #BR100669). Experiments were performed at 25° C.
parameter: kon (M⁻¹ s⁻¹)
Quick reminder: number only, in M⁻¹ s⁻¹, skip the unit.

# example entries with known answers
h26D3 HC6 DS T91A (scFv, also called h26D3 DS T91A) scFv: HHHHHHGGGGSGGGGSGGGGSGGGGSDIQMTQSPSSVSASVGDRVTITCKSSQSLLYSTNQKNYLAWYQQKPGKAPKLLIYWASTRESGVPSRFSGSGSGTDFTLTISSLQPEDFATYYCQQYFIYPRTFGCGTKVEIKGGGGSGGGGSGGGGSGGGGSEVQLVQSGAEVKKPGSSVKVSCKASGYIFTDYNMDWVRQAPGQCLEWIGDINPDADTTSYNEKFKGRATLTVDKSTSTAYMELSSLRSEDAAVYYCARGGYSGSSYYHPMDYWGQGTLVTVSS :: 65000
h26D3 HC6 DS V11R (scFv, also called h26D3 DS V11R) scFv: HHHHHHGGGGSGGGGSGGGGSGGGGSDIQMTQSPSSVSASVGDRVTITCKSSQSLLYSTNQKNYLAWYQQKPGKAPKLLIYWASTRESGVPSRFSGSGSGTDFTLTISSLQPEDFATYYCQQYFIYPRTFGCGTKVEIKGGGGSGGGGSGGGGSGGGGSEVQLVQSGAERKKPGSSVKVSCKASGYIFTDYNMDWVRQAPGQCLEWIGDINPDADTTSYNEKFKGRATLTVDKSTSTAYMELSSLRSEDTAVYYCARGGYSGSSYYHPMDYWGQGTLVTVSS :: 90400

Now consider a different binder.
In plain terms, h26D3 HC6 DS S16E (scFv, also called h26D3 DS S16E) scFv: HHHHHHGGGGSGGGGSGGGGSGGGGSDIQMTQSPSSVSASVGDRVTITCKSSQSLLYSTNQKNYLAWYQQKPGKAPKLLIYWASTRESGVPSRFSGSGSGTDFTLTISSLQPEDFATYYCQQYFIYPRTFGCGTKVEIKGGGGSGGGGSGGGGSGGGGSEVQLVQSGAEVKKPGESVKVSCKASGYIFTDYNMDWVRQAPGQCLEWIGDINPDADTTSYNEKFKGRATLTVDKSTSTAYMELSSLRSEDTAVYYCARGGYSGSSYYHPMDYWGQGTLVTVSS has a documented kon of 57700
